- subject.of.test: STAT6 (Homo sapiens, UniProt P42226)
- Construct: These cells express endogenous STAT6; host or cells: HeLa LgBiT clone 4.14
- Sequence (P42226 whole entry): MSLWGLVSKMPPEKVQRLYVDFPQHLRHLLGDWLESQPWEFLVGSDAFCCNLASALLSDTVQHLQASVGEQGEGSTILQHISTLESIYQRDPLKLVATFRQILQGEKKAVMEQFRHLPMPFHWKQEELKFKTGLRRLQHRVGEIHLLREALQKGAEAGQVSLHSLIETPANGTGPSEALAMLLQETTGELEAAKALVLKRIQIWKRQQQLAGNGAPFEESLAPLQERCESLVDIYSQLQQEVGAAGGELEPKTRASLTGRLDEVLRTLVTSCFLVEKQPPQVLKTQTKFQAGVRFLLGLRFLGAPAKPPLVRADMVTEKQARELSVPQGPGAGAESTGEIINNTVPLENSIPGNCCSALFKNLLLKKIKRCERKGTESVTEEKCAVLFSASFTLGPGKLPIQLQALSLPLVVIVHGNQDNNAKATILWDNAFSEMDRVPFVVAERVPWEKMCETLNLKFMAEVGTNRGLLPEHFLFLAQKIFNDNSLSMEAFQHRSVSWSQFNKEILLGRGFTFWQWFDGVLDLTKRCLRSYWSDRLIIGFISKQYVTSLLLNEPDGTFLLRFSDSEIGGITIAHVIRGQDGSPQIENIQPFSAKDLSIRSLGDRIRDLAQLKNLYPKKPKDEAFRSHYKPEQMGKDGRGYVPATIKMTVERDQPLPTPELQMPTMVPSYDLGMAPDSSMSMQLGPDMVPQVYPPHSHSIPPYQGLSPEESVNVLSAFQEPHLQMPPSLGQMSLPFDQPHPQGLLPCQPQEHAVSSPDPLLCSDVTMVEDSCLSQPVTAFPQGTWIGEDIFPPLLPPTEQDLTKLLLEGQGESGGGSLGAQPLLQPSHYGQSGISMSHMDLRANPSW
- run.description: Stat6 Degrader Assay (HiBiT based, HeLa LgBiT clone 4.14)
- Format: cell-based
- conditions: HeLa LgBiT clone 4.14 HiBiT-STAT6, 4-24 h incubation; values given for compounds with >80% Emax; geometric mean; read-out: STAT6 degradation DC50
Listing of entries alongside the reported DC50.
readout: DC50 (nM)

| compound | numeric.result |
| --- | --- |
| CNc1cc(=O)n(-c2ccnc3c2cc([C@H](C)N2CC=C(c4c(C)cc(C(=O)N(C)c5ccc(N6CCC(Cc7ccc8c(c7)n(C)c(=O)n8[C@H]7CCC(=O)NC7=O)CC6)nc5)cc4F)CC2)n3C)cc1F (single isomer, unassigned) [Example 3u242] | 0.2 |
| CNc1ccn(-c2ccnc3c2cc([C@H](C)N2CC=C(c4c(C)cc(C(=O)N5CCn6nc(CC7CCN(c8ccc9c(c8)n(C8CC8)c(=O)n9C8CCC(=O)NC8=O)CC7)cc6C5)cc4F)CC2)n3C)c(=O)c1 (stereo partly shown) [Example 3u259] | 0.5 |
| CNc1ccn(-c2ccnc3c2cc([C@H](C)N2CCC(c4ccc(C(=O)N5CCC(CN6CCN(Cc7ccc8c(c7)C7(CC7)C(=O)N8[C@H]7CCC(=O)NC7=O)C[C@@H]6C)CC5)cc4)CC2)n3C)c(=O)c1 (single isomer, unassigned) [Example 3u6] | 0.7 |
| CNc1cc(=O)n(-c2ccnc3c2cc(CN2CCC(c4c(F)cc(C(=O)N5CCC(CN6CCN(Cc7ccc8c(c7)C(C)(C)C(=O)N8[C@H]7CCC(=O)NC7=O)CC6)CC5)cc4F)CC2)n3C)cc1F (single isomer, unassigned) [Example 3u58] | 7.6 |

====

- subject.of.test: STAT6 (Homo sapiens, UniProt P42226)
- Construct: These cells express endogenous STAT6; host or cells: HeLa LgBiT clone 4.14
- run.description: Stat6 Degrader Assay (HiBiT based, HeLa LgBiT clone 4.14)
- Format: cell-based
- conditions: HeLa LgBiT clone 4.14 HiBiT-STAT6, 4-24 h incubation; values given for compounds with >80% Emax; geometric mean; read-out: STAT6 degradation DC50

| compound | subject.of.test | DC50 / nM |
| --- | --- | --- |
| Cc1cc(C(=O)N2CCC(CN3CCN(Cc4ccc5c(c4)n(C)c(=O)n5[C@@H]4CCC(=O)NC4=O)C[C@@H]3C)CC2)cc(F)c1C1CCN(Cc2cc3c(-n4ccc5c(c4=O)CCN5)ccnc3n2C)CC1 (single isomer, unassigned) [Example 3u40] | STAT6 (Homo sapiens, UniProt P42226) | 2.3 |
| CNc1ccn(-c2ccnc3c2cc([C@H](C)N2CC=C(c4c(C)cc(C(=O)N5CCC(CN6CCN(Cc7ccc8c(c7)C(F)(F)C(=O)N8C7CCC(=O)NC7=O)CC6)CC5)cc4F)CC2)n3C)c(=O)c1 (some centres unmarked) [Example 3u255] | STAT6 (Homo sapiens, UniProt P42226) | 13.7 |
| CNc1ccn(-c2ccnc3c2cc(CN2CCC(c4c(F)cc(C(=O)N5CCC(CN6CCN(Cc7ccc8c(c7)n(C)c(=O)n8C7CCC(=O)NC7=O)C[C@@H]6C)CC5)cc4F)CC2)n3C)c(=O)c1 (some centres unmarked) [Example 3u19] | STAT6 (Homo sapiens, UniProt P42226) | 0.7 |
| CNc1ccn(-c2ccnc3c2cc(CN2CC=C(c4c(C)cc(C(=O)N(C)c5ccc(C6CCN(Cc7ccc8c(c7)C(C)(C)C(=O)N8[C@H]7CCC(=O)NC7=O)CC6)cc5)cc4F)CC2)n3C)c(=O)c1 (single isomer, unassigned) [Example 3u229] | STAT6 (Homo sapiens, UniProt P42226) | 0.3 |
| CNc1cc(=O)n(-c2ccnc3c2cc([C@H](C)N2CC=C(c4c(C)cc(C(=O)N5CCC(CN6CCN(Cc7ccc8c(c7)n(C7CC7)c(=O)n8[C@H]7CCC(=O)NC7=O)C[C@@H]6C)CC5)cc4F)CC2)n3C)cc1F (single isomer, unassigned) [Example 3u119] | STAT6 (Homo sapiens, UniProt P42226) | 2.1 |
| CNc1cc(=O)n(-c2ccnc3c2cc([C@H](C)N2CC=C(c4c(F)cc(C(=O)N5CCC(CN6CCN(Cc7ccc8c(c7)n(C)c(=O)n8[C@H]7CCC(=O)NC7=O)CC6)CC5)cc4F)CC2)n3C)cc1F (single isomer, unassigned) [Example 3u52] | STAT6 (Homo sapiens, UniProt P42226) | 4.3 |
| Cc1cc(C(=O)N2CCC(CN3CCN(Cc4ccc5c(c4)n(C4CC4)c(=O)n5[C@H]4CCC(=O)NC4=O)CC3)CC2)cc(F)c1C1=CCN([C@@H](C)c2cc3c(-n4ccc5c(c4=O)CCN5)ccnc3n2C)CC1 (single isomer, unassigned) [Example 3u142] | STAT6 (Homo sapiens, UniProt P42226) | 2.4 |
| CNc1cc(=O)n(-c2ccnc3c2cc(CN2CC=C(c4c(F)cc(C(=O)N5CCC(CN6CCN(Cc7ccc8c(c7)n(C7CC7)c(=O)n8C7CCC(=O)NC7=O)C[C@@H]6C)CC5)cc4F)CC2)n3C)cc1F (some centres unmarked) [Example 3u213] | STAT6 (Homo sapiens, UniProt P42226) | 8.6 |

Attribution: patent US20250320206A1
